test: lipophilicity by isocratic RP-HPLC (log k, k, log kw, S); type: physicochemical; details: mobile phase MeOH/water 90:10 (v/v)
Listed compounds paired with reported log k
Give the figure only, with no unit attached.

Consider the worked cases shown below.
| Compound | log k |
| --- | --- |
| CCCCOc1ccccc1NC(=O)OC(CN(CCC)CCC)CN1CCCCCC1 (stereo not shown) | 0.6240 |
| CCCCCOc1ccccc1NC(=O)OC(CN(CCC)CCC)CN1CCCC1 (stereo not shown) | 0.5064 |
| CCCCCOc1ccccc1NC(=O)OC(CN(CCC)CCC)CN1CCCCCC1.O=C(O)C(=O)O (stereo not shown) | 0.6828 |

Q: Retrieve log k measured for CCCCCCOc1cccc(NC(=O)OC(CN(CCC)CCC)CN2CCCCCC2)c1.Cl.Cl (stereo not shown) and print it.
Ans: 0.5174

Q: Report log k, nothing else, for this compound: CCCCCCOc1cccc(NC(=O)OC(CN(CCC)CCC)CN2CCCC2)c1 (stereo not shown)
Ans: 0.3679

Q: Assign log k to the following record: CCCCCOc1cccc(NC(=O)OC(CN(CCC)CCC)CN2CCCCCC2)c1.Cl.Cl (stereo not shown)
Ans: 0.4205

Q: Check the records and state log k for CCCCCCCOc1cccc(NC(=O)OC(CN(CCC)CCC)CN2CCCCCC2)c1.O=C(O)C(=O)O (stereo not shown)
Ans: 0.9619

====

assay: electronic properties, UV/Vis spectrophotometry of methanolic solutions; type: physicochemical; details: methanolic solution c = 8.0 × 10^−5 M, charge-transfer maximum λ2 (Ch-T) = 236–238 nm
log ε2 (Ch-T) values by entry
// no unit, no text: just the number

| Molecule | log ε2 (Ch-T) |
| --- | --- |
| CCCCCCCOc1cccc(NC(=O)OC(CN(CCC)CCC)CN2CCCC2)c1.Cl.Cl (centres unmarked) | 4.27 |
| CCCCCOc1cccc(NC(=O)OC(CN(CCC)CCC)CN2CCCC2)c1.Cl.Cl (centres unmarked) | 4.27 |
| CCCCCOc1ccccc1NC(=O)OC(CN(CCC)CCC)CN1CCCCCC1.O=C(O)C(=O)O (centres unmarked) | 4.22 |
| CCCCCCCOc1cccc(NC(=O)OC(CN(CCC)CCC)CN2CCCCCC2)c1.O=C(O)C(=O)O (centres unmarked) | 4.14 |

Q: Tell me measured log ε2 (Ch-T) for CCCCCOc1ccccc1NC(=O)OC(CN(CCC)CCC)CN1CCCC1 (centres unmarked) please.
Ans: 4.05

Q: Using the record for CCCCCCCOc1cccc(NC(=O)OC(CN(CCC)CCC)CN2CCCCCC2)c1.Cl.Cl (centres unmarked) , state its measured log ε2 (Ch-T).
Ans: 4.20

====

assay: electronic properties, UV/Vis spectrophotometry of methanolic solutions; assay type: physicochemical; details: methanolic solution c = 8.0 × 10^−5 M, λ1 = 208–210 nm
The molecules listed here are annotated with their log ε1.
Please respond with just the number, no unit label.

| Molecule | Recorded Result |
| --- | --- |
| CCCCOc1cccc(NC(=O)OC(CN(CCC)CCC)CN2CCCCCC2)c1 (stereo not shown) | 4.52 |
| CCCCCCOc1cccc(NC(=O)OC(CN(CCC)CCC)CN2CCCC2)c1 (stereo not shown) | 4.54 |
| CCCCCCCOc1cccc(NC(=O)OC(CN(CCC)CCC)CN2CCCCCC2)c1.Cl.Cl (stereo not shown) | 4.65 |

# input for lookup
Q: Give a short answer stating reported log ε1 for CCCCCCCOc1cccc(NC(=O)OC(CN(CCC)CCC)CN2CCCCCC2)c1.O=C(O)C(=O)O (stereo not shown) .
Ans: 4.44
